Data credit: PubChem BioAssay (NCATS)

# protocol-text: qHTS of pediatric cancer cell lines to identify multiple opportunities for drug repurposing: Primary screen for Rh41 cells (AID 1347108); note: nearly all actives have a fitted effect of over 70% in size
# measurement-setup: Rh41 rhabdomyosarcoma viability, CellTiter-Glo luminescence, 48 h; series mostly up to 46 µM
Records with an inconclusive call do not appear. Activity calls are given as the source filed them. Calls come from the whole dose curve; as a rule, active = well fitted cell-killing curve with a large enough effect; inconclusive = small, poorly fitted or top-dose-only effect; inactive = no such curve, though single readings can be large or run the other way.
The reply should be one of these categories: active, inactive

Some entries whose results are on file:
| compound | cat |
| --- | --- |
| Nc1ccc(N)cc1 | inactive |
| CC[C@]1(O)CC[C@H]2[C@@H]3CCC4=CCCC[C@@H]4[C@H]3CC[C@@]21C | inactive |
| C[C@H](CN1CCOCC1)C(C(=O)N1CCCC1)(c1ccccc1)c1ccccc1 | active |

Hi team, can someone confirm the assay call for "C[C@@H]1CC[C@H]2[C@@H](C)C(=O)O[C@@H]3O[C@@]4(C)CC[C@@H]1[C@]32OO4" ? inactive

Hi, do you know how "CN1CCc2cc(Cl)c(O)cc2[C@H]2c3ccccc3CC[C@@H]21" came out in this test? inactive
